# Assay Procedure: NCI Yeast Anticancer Drug Screen. Data for the sgs1 mgt1 strain (AID 161);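 also: 0% = growth of cultures given vehicle only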
# Condition Context: S. cerevisiae sgs1 mgt1 strain, stronger effect = higher value; at 50.0 µM unless noted
Compounds without any hit were thinned out: in the full panel of roughly 79,000, 15% have a hit.
This section presents compounds with their documented growth inhibition values.
Quick note: give the figure in %, leave out the unit.

Below, each entry is followed by its recorded growth inhibition result.
compound=COc1ccc([N+](=O)[O-])cc1N(C)C units_text=% numeric_readout=13.6
compound=C/C(=N\NC(N)=O)C1(O)CCCCC1 units_text=% numeric_readout=-17.3
compound=NNC(=S)N/N=C/c1ccc([N+](=O)[O-])s1 units_text=% numeric_readout=24.1
compound="CCC(CC)C(O)C(C)C(C)O (configuration not stated)" units_text=% numeric_readout=-10.6
compound="CC(=O)OC1c2ccccc2CCCCCCC12OCCO2 (configuration not stated)" units_text=% numeric_readout=-53.2

Which growth inhibition reading was recorded for the compound Cc1[nH]c2ccccc2c1/C=C/c1c[nH]c2ccccc12 ?
27.1

Which growth inhibition reading was recorded for the compound C=C(C)C(C)/C(C)=N/NC(N)=O (configuration not stated) (tested in a mixture with another compound) ?
-5.75

Which growth inhibition reading was recorded for the compound CCCCCCCCCCCCCOc1ccc(S(=O)(=O)/N=C(\N)NC(N)=NCCCCCCCCCCCC)cc1 ?
-2.8

Which growth inhibition reading was recorded for the compound O=C1/C(=C/c2ccc(O)cc2)CCc2ccccc21 ?
-2.1

Which growth inhibition reading was recorded for the compound CCOC(CC(=O)NCCNC(C)=O)OCC ?
7.2

Which growth inhibition reading was recorded for the compound O=[N+]([O-])c1ccn(Cc2ccccc2)c1 ?
5.65

Which growth inhibition reading was recorded for the compound Cc1cc(C)c(S(=O)(=O)Oc2ccccc2)c(C)c1 ?
-8.5

====

# Assay Procedure: NCI Yeast Anticancer Drug Screen. Data for the bub3 strain (AID 167)
# Condition Context: S. cerevisiae bub3 mutant strain, stronger effect = higher value; at 50.0 µM unless noted
This is part of a sample that, as a whole, favours compounds with a hit. Of some 79,000 tested, about 15% had one in any assay.
# if value of growth inhibition reaches -30%, tag Criterion met; if it stays below, tag Criterion not met

compound=COc1cccc(-c2cc(=O)c3cc(N4CCOCC4)ccc3[nH]2)c1 qualitative_label="Criterion not met"
compound=CC(C)OC(=O)Nc1ccc(O)cc1 qualitative_label="Criterion met"
compound=CCOC(=O)c1cccc(N)c1C(=O)OCCN(CC)CC qualitative_label="Criterion met"
compound=CCOc1cc(OCC)c2c(c1)C(=O)OC2=O qualitative_label="Criterion not met"
compound=Cc1ccc(NC(=O)c2ccc(OP(=O)(O)Nc3ccc(C)cc3)cc2)cc1 qualitative_label="Criterion met"

Hi team, for CC(=O)OC1CCC2(C)C(C1)C(=O)OC1C2CCC2(C)C(C(C)CCCC(C)C)CCC12 (stereo unspecified) , is the recorded growth inhibition at or above -30%?
Criterion met

====

# Assay Procedure: NCI Yeast Anticancer Drug Screen. Data for the sgs1 mgt1 strain (AID 161);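 also: 0% = growth of cultures given vehicle only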
# Condition Context: S. cerevisiae sgs1 mgt1 strain, stronger effect = higher value; at 50.0 µM unless noted
About 79,000 compounds went through this panel and 15% of them were active in at least one assay; those are over-represented in the sample as a whole. Activity calls are given as the source filed them. Rule as the data show it: active = growth inhibition above about 70%; inactive = the rest.
Quantity Kind: growth inhibition

Below, each entry is followed by its recorded growth inhibition result.
compound=CSc1nnc(CCC(=O)Nc2cc(Cl)ccc2Cl)o1 quantity_kind="growth inhibition" result="28.9% (inactive)"
compound=Cc1cc([N+](=O)[O-])c(Nc2ccc(C)c(Cl)c2)c([N+](=O)[O-])c1 quantity_kind="growth inhibition" result="29.6% (inactive)"
compound=O=C(O)c1c(-c2nccc3ccccc23)[nH]c(-c2ccccc2)c1S(=O)(=O)O quantity_kind="growth inhibition" result="-18.9% (inactive)"
compound=CC1=CC(C)(C)[C@H]2O[C@@]3(O)C[C@]4(C)[C@H]5C[C@@](C(C)C)(O[C@H]4c4ccoc4)O[C@H]4[C@]5(C3)O[C@@]1(O)[C@]24O quantity_kind="growth inhibition" result="-11.9% (inactive)"
compound=Nc1ccc(OCc2ccccc2)cc1[N+](=O)[O-] quantity_kind="growth inhibition" result="11.3% (inactive)"
compound="COc1ccc(NS(=O)c2ccccc2)cc1 (stereo not given)" quantity_kind="growth inhibition" result="3.1% (inactive)"
compound=COc1ccc(CCNC(=O)CCN2C(=O)CCC2=O)cc1OC quantity_kind="growth inhibition" result="1.55% (inactive)"
compound=CCN(CC)CCOC(=O)c1ccc(NC(=O)OCCOCCOC(=O)Nc2ccc(C(=O)OCCN(CC)CC)cc2)cc1 quantity_kind="growth inhibition" result="9.25% (inactive)"

Which growth inhibition reading was recorded for the compound CC1COC(C)(C)P(=O)(c2ccccc2)C1 (stereo not given) ?
-11.3% (inactive)

Which growth inhibition reading was recorded for the compound NC(=O)C(=Cn1c(=S)[nH]c2ccc([N+](=O)[O-])cc21)C(N)=O ?
-9.9% (inactive)

====

# Assay Procedure: NCI Yeast Anticancer Drug Screen. Data for the rad50 strain (AID 155);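 also: 0% = growth of vehicle-only cultures of the same strain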
# Condition Context: S. cerevisiae rad50 strain growth inhibition, stronger effect = higher value; at 50.0 µM unless noted
This is part of a sample that, as a whole, favours compounds with a hit. Of some 79,000 tested, about 15% had one in any assay. Where a SMILES comes first, the peptide text is derived from it. The star is where a group is joined. Boc = CC(C)(C)OC(=O)*
This section presents molecules with their documented growth inhibition values.
Quick note: give the figure in %, leave out the unit.

molecule=Cc1cc(N)ccc1-c1cc(C)c(N)c(C)c1C numeric_readout=-39.4
molecule=C/C=C(/I)CBr numeric_readout=28.4
molecule="COC(=O)C(Cc1c[nH]c2ccccc12)NC(=O)C(Cc1c[nH]c2ccccc12)NC(=O)C(Cc1c[nH]c2ccccc12)NC(=O)C(Cc1c[nH]c2ccccc12)NC(=O)C(Cc1c[nH]c2ccccc12)NC(=O)C(Cc1c[nH]c2ccccc12)NC(=O)OC(C)(C)C (centres undefined) (Boc-WWWWWW-OMe; configuration not given here)" numeric_readout=-6.8
molecule=N#CNc1nc(N)c(-c2ccc(Cl)cc2)c(C(=O)Nc2nccs2)n1 numeric_readout=-8.85
molecule=CCN(CC)CCOC(=O)c1ccc(NC(=O)OCCOCCOC(=O)Nc2ccc(C(=O)OCCN(CC)CC)cc2)cc1 numeric_readout=-1.8
molecule=CCN(CC)CCNc1ccc2ncn3c4cc(=O)ccc4c(O)c1c23 numeric_readout=-2.3
molecule="CC1OC(Cl)CC(NC(=O)C(F)(F)F)C1OC(=O)C(F)(F)F (centres undefined)" numeric_readout=-0.55
molecule="CC1Sc2ccccc2-c2[nH]c3ccccc3c21 (centres undefined)" numeric_readout=32.8

Lab note: next molecule to report on.
Which growth inhibition reading was recorded for the molecule Cc1ccc(OCCC(=O)N(C)C)cc1 ?
5.05

====

# Assay Procedure: NCI Yeast Anticancer Drug Screen. Data for the sgs1 mgt1 strain (AID 161);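 also: 0% = growth of cultures given vehicle only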
# Condition Context: S. cerevisiae sgs1 mgt1 strain, stronger effect = higher value; at 50.0 µM unless noted
Compounds without any hit were thinned out: in the full panel of roughly 79,000, 15% have a hit.
Quantity Kind: growth inhibition (%)
Quick note: give the figure in %, leave out the unit.

Below, each entry is followed by its recorded growth inhibition result.
molecule=CC(C)C(=O)Nc1nc2nc[nH]c2c(=O)[nH]1 numeric_readout=24.9
molecule="CC1CCC(c2ccccc2)(c2ccccc2)C1=O (stereo not given)" numeric_readout=-2.5
molecule=COc1ccc(/C=N\NC(=O)c2cnccn2)cc1 numeric_readout=5.35
molecule=COc1ccc(N=Nc2nc(N)c(C(N)=O)[nH]2)cc1 numeric_readout=-4.75
molecule=CCc1cccc(CC)c1NC(=O)OCCN(CC)CC numeric_readout=10.4

Which growth inhibition reading was recorded for the molecule CS(=O)(=O)c1ccc(/C(=N/N)c2ccccc2)cc1 ?
9.2

Which growth inhibition reading was recorded for the molecule NC1CCC(C2CCC(N)CC2)CC1 (stereo not given) ?
3.7

Which growth inhibition reading was recorded for the molecule COc1cc(C)c(C)c(OC(=O)c2c(C)c(C)c(OC)c(C)c2OC)c1C ?
11.3

Which growth inhibition reading was recorded for the molecule CC1C(c2ccccc2)OCCN1C(N)=S (stereo not given) ?
52.4

Which growth inhibition reading was recorded for the molecule COc1ccc(C(c2cc3c(cc2O)OCO3)N2CCN(C(c3ccc(OC)c(OC)c3)c3cc4c(cc3O)OCO4)CC2)cc1OC (stereo not given) ?
1.6

Which growth inhibition reading was recorded for the molecule CC1CCCN1c1ccnc2cc(Cl)ccc12 (stereo not given) ?
7.15

Which growth inhibition reading was recorded for the molecule CC(=O)CC(=O)NCC1CCC(CNC(=O)CC(C)=O)CC1 (stereo not given) ?
-13.9

Which growth inhibition reading was recorded for the molecule O=C1N=CN=C2C=CC(Cl)=C(I)C12 (stereo not given) ?
19.5

Which growth inhibition reading was recorded for the molecule O=C(Nc1ccc(C(=O)O)cc1)Nc1cccc(Cl)c1 ?
-9.55

// provenance: PubChem BioAssay (NCI)
